Where do these numbers come from? They come from ChEMBL document CHEMBL1201862.

# Measured on: UniProt Q9GZV3
# Sequence (Q9GZV3 whole entry): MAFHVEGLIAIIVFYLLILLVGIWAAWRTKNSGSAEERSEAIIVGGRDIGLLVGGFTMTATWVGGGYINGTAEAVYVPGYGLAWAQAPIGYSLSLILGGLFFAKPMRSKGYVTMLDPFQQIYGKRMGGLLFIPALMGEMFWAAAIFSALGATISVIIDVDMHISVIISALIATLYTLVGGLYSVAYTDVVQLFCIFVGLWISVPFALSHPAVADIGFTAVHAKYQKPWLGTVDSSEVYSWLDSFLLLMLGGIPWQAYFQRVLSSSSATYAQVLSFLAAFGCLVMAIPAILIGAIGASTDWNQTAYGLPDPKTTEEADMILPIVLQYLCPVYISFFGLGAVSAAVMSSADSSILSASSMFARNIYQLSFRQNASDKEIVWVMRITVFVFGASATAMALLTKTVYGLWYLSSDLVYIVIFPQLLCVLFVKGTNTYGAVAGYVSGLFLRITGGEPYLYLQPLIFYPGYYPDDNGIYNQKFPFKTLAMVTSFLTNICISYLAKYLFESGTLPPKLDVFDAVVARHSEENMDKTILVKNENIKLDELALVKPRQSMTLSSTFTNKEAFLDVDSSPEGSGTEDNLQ
# Experiment description: CHT inhibitors, dose response, cell-based, 5-point CRC, membrane potential dye (AID 504840)
# Assay type: functional
Activity calls are given as the source filed them.
Each item that follows carries a reported IC50.

Please review the entries below; each comes with its answer.
CCC(Oc1ccc2c(c1)C(=O)CC(C)(C)O2)C(=O)NCCN1CCCCCC1 (centres undefined) : 15.8 µM (active)
CN(/N=C/c1ccc([N+](=O)[O-])o1)c1ccccc1 : 12.9 µM (active)
CCN(CC)CCCn1c2c(c(SCC(=O)N3CCc4ccccc43)nc1=O)CCC2 : 10.9 µM (active)

// next item, IC50 requested
Q: So what's the measured IC50 for this one? `CC(/C=C1\SC(=S)N(NC(=O)c2ccncc2)C1=O)=C\c1ccccc1`
Ans: 14.5 µM (active)

----------
# Measured on: Corticotropin-releasing factor receptor 2/Corticotropin-releasing factor-binding protein (Homo sapiens, UniProt P24387+Q13324)
# Sequence (Q13324 whole entry): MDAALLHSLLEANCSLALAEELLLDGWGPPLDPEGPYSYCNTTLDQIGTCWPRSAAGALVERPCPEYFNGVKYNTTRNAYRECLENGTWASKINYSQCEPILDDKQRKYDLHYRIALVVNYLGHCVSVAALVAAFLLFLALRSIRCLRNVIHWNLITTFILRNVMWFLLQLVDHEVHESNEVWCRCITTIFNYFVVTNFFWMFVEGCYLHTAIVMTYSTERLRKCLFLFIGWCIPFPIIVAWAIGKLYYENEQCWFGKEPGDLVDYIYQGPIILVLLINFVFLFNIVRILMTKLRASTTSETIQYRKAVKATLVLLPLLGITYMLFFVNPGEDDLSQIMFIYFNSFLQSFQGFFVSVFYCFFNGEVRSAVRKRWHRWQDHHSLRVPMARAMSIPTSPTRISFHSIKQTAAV
# Sequence (P24387 whole entry): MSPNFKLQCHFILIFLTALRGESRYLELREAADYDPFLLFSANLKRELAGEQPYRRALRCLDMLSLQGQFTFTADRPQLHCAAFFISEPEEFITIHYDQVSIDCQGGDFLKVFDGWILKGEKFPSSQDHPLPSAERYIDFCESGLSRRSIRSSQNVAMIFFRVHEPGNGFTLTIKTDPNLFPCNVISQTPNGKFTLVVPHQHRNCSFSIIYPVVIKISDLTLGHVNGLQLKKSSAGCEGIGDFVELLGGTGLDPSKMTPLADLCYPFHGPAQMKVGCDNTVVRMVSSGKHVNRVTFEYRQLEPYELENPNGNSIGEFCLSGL
# Experiment description: activators of CRF receptor 2 with binding protein – uHTS hits, confirmation (AID 602473)
# Format: functional
# Setup conditions: read-out: EC50_Mean
The source made the active and inactive calls.
Answer with one of the outcomes given here: class 1 (active), class 0 (inactive)

A selection of reference data follows.
Oc1ccnc2c(Cl)cccc12 : class 0
CC(=O)C1(O)CCC2C3CC(C)C4=CC(=O)C=CC4(C)C3(F)C(O)CC21C (stereo not drawn) : class 0
CCN(CC)S(=O)(=O)c1cccc(C(=O)Nc2ccc3c(c2)OCO3)c1 : class 0
CCCCCCNC(=O)C(C#N)c1nc2ccccc2nc1N1CCCC1 (stereo not drawn) : class 1
O=C(NNC(=O)c1cccc(S(=O)(=O)N2CCCCC2)c1)c1ccccc1 : class 0
O=Cc1c(N2CCN(CCO)CC2)nc2ccccn2c1=O : class 0

Q: Recorded call for CCC1(c2ccc(F)cc2)NC(=O)N(CC(=O)N2CCc3ccccc32)C1=O (stereo not drawn) ?
Ans: class 1

Q: Recorded call for `COc1ccc(CCNC(=O)COc2ccc(N(C)S(=O)(=O)c3ccc(C)cc3)cc2)cc1OC` ?
Ans: class 0

Q: Recorded call for Cc1cccc(N2CCN(S(=O)(=O)c3ccc(Cl)nc3)CC2C)c1 (stereo not drawn) ?
Ans: class 0

Q: Recorded call for Cc1ccc2nc(N3C(=O)C(O)=C(C(=O)c4ccco4)C3c3cccc(O)c3)sc2c1 (stereo not drawn) ?
Ans: class 0

Q: Recorded call for `CC(C)(C)c1cc(C(=O)NNC(=O)Nc2cccc(Cl)c2)n(Cc2ccccc2)n1` ?
Ans: class 0

Q: Recorded call for `C=CCN1C(=O)NC(=O)/C(=C(/CC)Nc2ccccc2NC(=O)CC)C1=O` ?
Ans: class 0

Q: Recorded call for COc1ccc(OC)c(S(=O)(=O)N2c3ccccc3CC2C)c1 (stereo not drawn) ?
Ans: class 0

Q: Recorded call for `COC(=O)c1ccc(CSc2nc3ccccc3c(=O)n2-c2cccc(OC)c2)o1` ?
Ans: class 0

----------
Each item that follows carries a reported AC50.
# Measured on: Cytochrome P450 1A2 (Homo sapiens, UniProt P05177)
# Sequence (P05177 whole entry): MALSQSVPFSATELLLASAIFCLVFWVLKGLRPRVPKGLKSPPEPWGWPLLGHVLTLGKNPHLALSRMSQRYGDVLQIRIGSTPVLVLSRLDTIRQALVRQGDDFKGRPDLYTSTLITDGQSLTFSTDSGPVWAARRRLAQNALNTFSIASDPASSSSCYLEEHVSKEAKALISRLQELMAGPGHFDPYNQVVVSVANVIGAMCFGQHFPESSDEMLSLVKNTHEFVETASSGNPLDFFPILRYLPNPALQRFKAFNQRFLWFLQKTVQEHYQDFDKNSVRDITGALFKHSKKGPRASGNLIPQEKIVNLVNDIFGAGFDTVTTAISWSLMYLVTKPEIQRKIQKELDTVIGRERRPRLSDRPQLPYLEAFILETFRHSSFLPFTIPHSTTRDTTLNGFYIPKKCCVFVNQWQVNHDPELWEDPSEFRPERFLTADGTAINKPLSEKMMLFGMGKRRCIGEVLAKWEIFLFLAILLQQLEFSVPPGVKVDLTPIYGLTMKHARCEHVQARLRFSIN

COc1ccc(CCN(C)Cc2ccc(OCc3ccccc3)c(OC)c2)cc1OC : 39.8 µM (inconclusive)

// next item, AC50 requested
Q: So what's the measured AC50 for this one? COc1c(C)c2c(c(O)c1C/C=C(\C)CCC(=O)O)C(=O)OC2 [MYCOPHENOLIC ACID]
Ans: 15.8 µM (inconclusive)

----------
# Measured on: Peroxisome proliferator-activated receptor gamma/Nuclear receptor coactivator 2 (Homo sapiens)
# Sequence (P37231 whole entry): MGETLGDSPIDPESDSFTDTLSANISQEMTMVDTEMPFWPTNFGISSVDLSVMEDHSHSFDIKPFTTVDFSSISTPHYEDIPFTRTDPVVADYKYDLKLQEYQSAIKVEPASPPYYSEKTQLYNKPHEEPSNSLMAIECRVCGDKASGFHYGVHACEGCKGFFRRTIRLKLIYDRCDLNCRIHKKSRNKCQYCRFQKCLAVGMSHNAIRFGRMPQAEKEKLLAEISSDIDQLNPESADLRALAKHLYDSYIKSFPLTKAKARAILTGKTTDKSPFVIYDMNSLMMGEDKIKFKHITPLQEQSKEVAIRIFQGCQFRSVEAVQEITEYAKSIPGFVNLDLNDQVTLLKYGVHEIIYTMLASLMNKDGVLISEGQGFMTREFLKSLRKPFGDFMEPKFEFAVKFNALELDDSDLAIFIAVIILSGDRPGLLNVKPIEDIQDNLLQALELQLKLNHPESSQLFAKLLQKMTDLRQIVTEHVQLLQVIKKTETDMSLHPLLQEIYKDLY
# Sequence (Q15596 whole entry, further chain): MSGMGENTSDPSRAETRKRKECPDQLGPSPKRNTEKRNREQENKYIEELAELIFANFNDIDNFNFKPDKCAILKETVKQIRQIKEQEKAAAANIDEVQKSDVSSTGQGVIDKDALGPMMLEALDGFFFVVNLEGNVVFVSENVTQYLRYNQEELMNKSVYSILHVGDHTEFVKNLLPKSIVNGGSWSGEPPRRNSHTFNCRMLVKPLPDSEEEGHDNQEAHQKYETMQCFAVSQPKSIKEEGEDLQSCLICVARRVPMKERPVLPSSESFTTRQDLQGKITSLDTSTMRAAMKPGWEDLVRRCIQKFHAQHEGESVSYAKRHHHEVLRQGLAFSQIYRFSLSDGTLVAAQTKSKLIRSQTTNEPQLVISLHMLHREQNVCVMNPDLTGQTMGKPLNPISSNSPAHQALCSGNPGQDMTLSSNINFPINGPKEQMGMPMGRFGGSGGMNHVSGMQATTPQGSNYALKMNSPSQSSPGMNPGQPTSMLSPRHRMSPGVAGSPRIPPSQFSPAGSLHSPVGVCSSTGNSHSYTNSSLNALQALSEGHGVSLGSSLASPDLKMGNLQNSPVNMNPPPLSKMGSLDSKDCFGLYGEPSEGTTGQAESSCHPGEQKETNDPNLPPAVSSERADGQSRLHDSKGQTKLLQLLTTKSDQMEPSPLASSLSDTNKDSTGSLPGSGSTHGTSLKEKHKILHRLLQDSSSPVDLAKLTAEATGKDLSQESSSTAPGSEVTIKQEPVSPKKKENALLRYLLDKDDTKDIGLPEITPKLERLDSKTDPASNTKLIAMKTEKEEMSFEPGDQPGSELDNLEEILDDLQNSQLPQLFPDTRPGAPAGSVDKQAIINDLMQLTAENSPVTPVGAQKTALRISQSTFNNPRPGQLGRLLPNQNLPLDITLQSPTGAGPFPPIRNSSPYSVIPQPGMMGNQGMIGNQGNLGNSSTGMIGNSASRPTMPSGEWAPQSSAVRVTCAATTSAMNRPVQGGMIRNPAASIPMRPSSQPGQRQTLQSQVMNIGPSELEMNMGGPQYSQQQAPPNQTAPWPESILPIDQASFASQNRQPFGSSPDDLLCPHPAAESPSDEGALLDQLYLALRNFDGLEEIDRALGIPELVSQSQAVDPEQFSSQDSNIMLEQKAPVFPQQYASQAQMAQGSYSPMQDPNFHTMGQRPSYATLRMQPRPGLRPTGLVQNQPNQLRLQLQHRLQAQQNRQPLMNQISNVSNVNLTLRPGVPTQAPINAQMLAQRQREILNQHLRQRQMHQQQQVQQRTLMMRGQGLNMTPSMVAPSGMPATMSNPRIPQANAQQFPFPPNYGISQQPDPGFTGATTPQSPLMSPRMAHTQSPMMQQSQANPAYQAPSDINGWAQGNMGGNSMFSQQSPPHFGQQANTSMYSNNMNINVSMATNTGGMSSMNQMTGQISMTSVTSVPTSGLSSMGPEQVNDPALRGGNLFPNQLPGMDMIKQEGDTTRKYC
# Experiment description: TR-FRET dose response biochemical High Throughput Screening assay for agonists of the steroid receptor coactivator 2 (SRC-2) recruitment by the peroxisome proliferator-activated receptor gamma (PPAR gamma): non-selective agonists. [Related pubchem assays: 1297, 1032 ]
# Format: functional
Activity calls are given as the source filed them.
Quantity name: EC50

COc1ccc(C2C(C(=O)c3ccco3)=C(O)C(=O)N2c2nnc(C)s2)cc1 (stereo not given) : 18.7 µM (not active)
CCn1c(=O)cc(SCC(=O)Nc2cccc(C)n2)c2ccccc21 : > 79.4 µM (not active)
COC(=O)c1c(N=C(S)Nc2ccc(CC(=O)O)cc2)sc(C)c1C : 9.39 µM (active)
C=CCn1c(=S)[nH]c2scc(-c3cccs3)c2c1=O : 5.27 µM (active)

Q: So what's the measured EC50 for this one? `[O-][N+]1=c2ccc(Nc3ccccc3)cc2=NC12CCCCC2`
Ans: 14.4 µM (not active)

----------
# Experiment description: inhibitors of SNCA 5'UTR-driven reporter translation, confirmation, H4 neuroglioma cells, luminescence (AID 1988)
# Type: functional, cell-based
Activity calls are given as the source filed them.
Each item that follows carries a reported EC50.

Please review the entries below; each comes with its answer.
CS(=O)(=O)n1nc(-c2cccnc2)nc1NCc1ccccc1 : > 120 µM (not active)
CCOc1ccc(-c2cc(CCCC(=O)N3CCN(c4ccc(OC)cc4)CC3)no2)cc1 : 28.1 µM (active)

Q: So what's the measured EC50 for this one? `O=C(NC(=S)NNC(=O)c1cnccn1)c1ccc(Cl)cc1`
Ans: 9.3 µM (active)

Q: So what's the measured EC50 for this one? `CCOc1ccc(-n2nc3ccc(NC(=O)c4ccc5c(c4)OCCO5)cc3n2)cc1`
Ans: 12.7 µM (active)

Q: So what's the measured EC50 for this one? `CCOC(=O)Cc1csc(NC(=O)c2c(O)c3ccccc3n(CC(C)C)c2=O)n1`
Ans: 11.1 µM (active)

Q: So what's the measured EC50 for this one? `Cn1c(NCc2cccnc2)nc2c1c(=O)n(Cc1ccccc1F)c(=O)n2C`
Ans: > 120 µM (not active)

Q: So what's the measured EC50 for this one? `COc1cccc(/C=N/Nc2ccc([N+](=O)[O-])cn2)c1O`
Ans: 0.54 µM (active)

----------
# Measured on: Calpain-2 catalytic subunit (Sus scrofa)
# Sequence (P43367 whole entry): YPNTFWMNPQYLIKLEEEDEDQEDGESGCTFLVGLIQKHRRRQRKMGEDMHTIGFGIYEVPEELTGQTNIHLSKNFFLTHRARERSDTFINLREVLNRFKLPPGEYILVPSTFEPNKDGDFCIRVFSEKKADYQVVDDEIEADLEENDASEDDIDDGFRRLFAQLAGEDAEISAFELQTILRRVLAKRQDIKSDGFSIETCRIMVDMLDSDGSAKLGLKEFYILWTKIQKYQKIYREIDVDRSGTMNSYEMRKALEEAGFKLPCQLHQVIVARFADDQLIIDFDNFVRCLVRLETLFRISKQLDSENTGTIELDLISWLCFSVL
# Experiment description: pig calpain II inhibitor potency, dose response, biochemical, fluorogenic peptide substrate (AID 1420)
# Format: functional
Each item that follows carries a reported IC50.

O=C(Nc1ccc(Cl)cc1)c1ccc(OC2CSC2)cc1 : 16.7 µM (not active)
COc1ccc(N2C(=O)N(Cc3ccc(C)cc3)c3ccccc3S2(=O)=O)cc1 : 18.5 µM (not active)
Cc1ccc(OCc2nnc(S)n2C2CCCCC2)cc1 : 38.6 µM (not active)
CCN1C(=O)/C(=C\c2cn(-c3ccccc3)nc2-c2cccnc2)SC1=S : > 50 µM (not active)

// next item, IC50 requested
Q: So what's the measured IC50 for this one? `COc1ccc(C(=O)C23CC4CC(C2)CC(C(=O)c2ccc(OC)cc2)(C4)C3)cc1`
Ans: < 0.4 µM (not active)

----------
# Measured on: DNA dC->dU-editing enzyme APOBEC-3G (Homo sapiens)
# Sequence (Q9HC16 whole entry): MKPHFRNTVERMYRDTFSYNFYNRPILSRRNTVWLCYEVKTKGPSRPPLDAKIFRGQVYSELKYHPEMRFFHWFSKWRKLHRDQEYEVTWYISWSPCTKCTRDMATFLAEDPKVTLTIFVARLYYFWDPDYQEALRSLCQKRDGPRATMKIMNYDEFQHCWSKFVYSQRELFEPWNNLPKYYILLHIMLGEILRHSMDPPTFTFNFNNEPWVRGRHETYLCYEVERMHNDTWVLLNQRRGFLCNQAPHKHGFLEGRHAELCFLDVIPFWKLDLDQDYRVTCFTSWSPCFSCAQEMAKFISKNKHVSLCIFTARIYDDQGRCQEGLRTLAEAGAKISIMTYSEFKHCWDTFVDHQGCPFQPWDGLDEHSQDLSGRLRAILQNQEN
# Experiment description: Dose Response confirmation of small molecule APOBEC3G DNA Deaminase Inhibitors via a fluorescence-based single-stranded DNA deaminase assay. [Related pubchem assays (depositor defined):AID493012, AID493028]
# Assay type: functional
Activity calls are given as the source filed them.
Quantity name: IC50

OCc1ccccc1SSc1ccccc1CO : 12.3 µM (active)
O=C(Nc1cc(S(=O)(=O)Nc2ccc(Cl)cc2)ccc1O)c1ccc(S(=O)(=O)N2CCCCCC2)cc1 : 73.7 µM (active)
O=C(Cn1c(=O)oc2ccccc21)Nc1nnc(S)s1 : 2.44 µM (active)

// next item, IC50 requested
Q: So what's the measured IC50 for this one? `Cc1ccc(/C=N/n2c(S)nnc2-c2ccncc2)s1`
Ans: 2.17 µM (active)

----------
# Experiment description: growth suppression of beta-catenin-knockout colon cells, dose response, cell-based, HCT116, human colon tumor (AID 1045);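 further: HCT116 colon tumor cells with beta catenin knocked out; cells exposed to compound for 60 hours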
# Assay type: functional
Calls of active or inactive are those of the source.
Quantity name: EC50

Please review the entries below; each comes with its answer.
CCOC(=O)N1CCN(S(=O)(=O)c2ccc(C(=O)Nc3nc4c(s3)CC(C)CC4)cc2)CC1 (centres undefined) : 1.7 µM (active)
Cc1c(Cl)cccc1/N=C/c1ccc([N+](=O)[O-])s1 : 40.3 µM (active)
O=C1c2ccccc2C(=O)C12OC2c1ccc(Cl)cc1Cl (centres undefined) : 20.3 µM (active)

// next item, EC50 requested
Q: So what's the measured EC50 for this one? COc1ccc(C(=O)C(CCC(CNC(C)(C)C)C(=O)c2ccc(OC)cc2)CNC(C)(C)C)cc1 (centres undefined)
Ans: 2.48 µM (active)
